# procedureDetails: chemical genetic growth profiling, strain panel (AID 1159580);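 also: tested at 20 µM; growth read once vehicle control cultures reached saturation at 30 °C; lower values mean less growth of the strain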
# testConditions: S. cerevisiae deletion strains, growth OD, locus YLR039C, strain RIC1
In all, about 5,500 compounds went through this assay and about 2,000 (36%) were called active. Not shown: some 18% with an inconclusive outcome. Rule as the data show it: active = normalized growth mostly below about 0.91 (no sharp cut-off); inconclusive = no clear call, values can overlap the other calls; inactive = mostly above about 0.92. Some of the results follow.
Outcome codes: active, inactive

{"compound": "CC(=O)OC1CCC2C3CCc4cc(O)ccc4C3CCC12C (stereo unspecified)", "qualitativeLabel": "inactive"}
{"compound": "CCCCCN=C(N)N/N=C\\c1c[nH]c2ccc(OC)cc12", "qualitativeLabel": "inactive"}
{"compound": "O=C(O)C12CC3CC(CC(Br)(C3)C1)C2", "qualitativeLabel": "inactive"}
{"compound": "O=S(=O)(O)c1cccc2cccc(Cl)c12", "qualitativeLabel": "inactive"}
{"compound": "CC(=O)Oc1ccc2c(c1)CCC1C2CC[C@@]2(C)C1CC[C@@H]2OC(C)=O (stereo partly specified)", "qualitativeLabel": "inactive"}
{"compound": "CN1Cc2c(N)cccc2C(c2ccccc2)C1 (stereo unspecified)", "qualitativeLabel": "inactive"}
{"compound": "COc1ccc(-n2c(SCc3ccc(Br)cc3)nnc2-c2ccco2)cc1", "qualitativeLabel": "inactive"}
{"compound": "O=C(CCCN1CC=C(n2c(=O)[nH]c3ccccc32)CC1)c1ccc(F)cc1", "qualitativeLabel": "inactive"}
{"compound": "N#CC(C#N)=CNc1cc(C(F)(F)F)ccc1N1CCCCC1", "qualitativeLabel": "inactive"}
{"compound": "NC(=S)c1ccc2nonc2c1", "qualitativeLabel": "inactive"}
{"compound": "CCOc1ccc(Cc2nccc3cc(OCC)c(OCC)cc23)cc1OCC", "qualitativeLabel": "inactive"}
{"compound": "N#Cc1ccc2c(c1)N(CCCN1CCC(O)CC1)c1ccccc1S2", "qualitativeLabel": "inactive"}
{"compound": "Cn1c([N+](=O)[O-])cnc1COC(N)=O", "qualitativeLabel": "inactive"}
{"compound": "COc1ccc2c(=O)c(CC(=O)O)coc2c1", "qualitativeLabel": "inactive"}
{"compound": "O=c1[nH]c2ccccc2n1C1CCN(CCCC(c2ccc(F)cc2)c2ccc(F)cc2)CC1", "qualitativeLabel": "inactive"}
{"compound": "CCN(CC)CCNC(=O)COc1ccc(OC)cc1", "qualitativeLabel": "inactive"}
{"compound": "Cc1cc(C)c(C(=O)NCCNc2ccc(C(F)(F)F)cc2[N+](=O)[O-])c(C)c1", "qualitativeLabel": "active"}
{"compound": "O=c1cc(-c2ccc(O)cc2)oc2cc(O[C@@H]3O[C@H](CO)[C@@H](O)[C@H](O)[C@H]3O[C@@H]3OC[C@](O)(CO)[C@H]3O)cc(O)c12", "qualitativeLabel": "inactive"}
{"compound": "CC(C)(C)c1cc(C(C)(C)C)n(-c2ccc([N+](=O)[O-])cc2)n1", "qualitativeLabel": "inactive"}
{"compound": "CCc1cccc(C)c1NC(=O)N1CCN(C(=O)OC(C)(C)C)CC1", "qualitativeLabel": "inactive"}
{"compound": "COc1cc2ccc(=O)oc2c(OC)c1OC", "qualitativeLabel": "inactive"}
{"compound": "CC(C)=CCc1c(O)cc2occ(-c3ccc4c(c3)OCO4)c(=O)c2c1O", "qualitativeLabel": "inactive"}
{"compound": "COC(=O)C1=CO[C@@H](O[C@@H]2O[C@H](CO)[C@@H](O)[C@H](O)[C@H]2O)[C@@H]2[C@@H](C)[C@@H](O)C[C@H]12", "qualitativeLabel": "inactive"}
{"compound": "O=C(Oc1ccc(F)cc1)c1cccs1", "qualitativeLabel": "inactive"}
{"compound": "CC1(C)S[C@@H]2[C@H](NC(=O)COc3ccccc3)C(=O)N2[C@H]1C(=O)O", "qualitativeLabel": "inactive"}
{"compound": "COc1ccc2c(c1)[nH]c1c(C)nccc12", "qualitativeLabel": "inactive"}
{"compound": "CC(C)(C)c1ccc(C(=O)N/N=C\\c2cc(Cl)cc(Cl)c2O)cc1", "qualitativeLabel": "active"}
{"compound": "CCCCCc1ccc(S(=O)(=O)Nc2cccnc2Oc2ccc(Cl)cc2)cc1", "qualitativeLabel": "inactive"}
{"compound": "Cc1cc(C)nc(NS(=O)(=O)c2ccc(N)cc2)n1", "qualitativeLabel": "inactive"}
{"compound": "c1ccc2c(c1)-c1cccc3cccc-2c13", "qualitativeLabel": "active"}
{"compound": "S=c1[nH]nc(-c2ccco2)n1-c1ccc2c(c1)OCCO2", "qualitativeLabel": "inactive"}
{"compound": "O=c1n(CCCN2CCN(c3cccc(Cl)c3)CC2)nc2ccccn12", "qualitativeLabel": "inactive"}
{"compound": "C[C@]12CCC3c4ccc(O)cc4CCC3C1CC[C@@H]2OC(=O)CCC1CCCC1 (stereo partly specified)", "qualitativeLabel": "inactive"}
{"compound": "COC(=O)c1ccccc1-n1cccc1C(=O)OC", "qualitativeLabel": "inactive"}
{"compound": "COC(=O)c1c(OC)ccc(N=CNO)c1OC", "qualitativeLabel": "inactive"}
{"compound": "Cc1ncc([N+](=O)[O-])n1CCO", "qualitativeLabel": "inactive"}
{"compound": "C[C@]12C=CC(=O)C=C1CCC1C2C(=O)C[C@@]2(C)C1CC[C@]2(O)C(=O)CO (stereo partly specified)", "qualitativeLabel": "inactive"}
{"compound": "Cc1cc(N=CNO)c2ccccc2n1", "qualitativeLabel": "inactive"}
{"compound": "Cc1ccc(S(=O)(=O)Oc2ccc(CC#N)cc2)cc1", "qualitativeLabel": "inactive"}
{"compound": "N/C(=N/OC(=O)C(Cl)Cl)c1cccc(Cl)c1Cl", "qualitativeLabel": "inactive"}
{"compound": "CN(C)c1nc(N(C)C)nc(N(C)C)n1", "qualitativeLabel": "inactive"}
{"compound": "CCS(=O)(=O)CCn1c([N+](=O)[O-])cnc1C", "qualitativeLabel": "inactive"}
{"compound": "COc1ccc(Cc2nccc3cc(OC)c(OC)cc23)cc1OC", "qualitativeLabel": "inactive"}
{"compound": "Cc1cccc(N(C)C(=S)Oc2ccc3ccccc3c2)c1", "qualitativeLabel": "active"}
{"compound": "O=C(NCCNc1ccc(C(F)(F)F)cc1[N+](=O)[O-])c1cccs1", "qualitativeLabel": "inactive"}
{"compound": "OCCN1CCN(CCCN2c3ccccc3Sc3ccc(Cl)cc32)CC1", "qualitativeLabel": "inactive"}
